# PROTOCOL DETAILS: Hansen's method for solubility parameters and interaction distance r relative to polyaniline base
# EXPERIMENTAL CONDITIONS: Table 5; interaction distance to polyaniline base (17.4, 8.5, 10.4)
The label depends only on r: condition met if it is at least 4, condition not met if it is smaller.

>>> print(df.to_string())
                                   molecule        label_value
0  CN(C)P(=O)(N(C)C)N(C)C [hexamethylphosporamide]  condition not met
1                  CNNC [Dimethylhydrazine]      condition met
2                                 Nc1ccccc1      condition met

Now for another entry.
**Q:** Check the entry "O=C1CCCN1" : does r equal or exceed 4?
**A:** condition met

Sourced from patent EP0563281B1
